- target: human full-length recombinant PKC βII (Homo sapiens)
- Construct: Active human full-length recombinant PKC βII; purchased Invitrogen GmbH, Darmstadt, Germany
- test: Determination of PKC βII inhibition (Caliper mobility-shift kinase assay, phosphorylation of fluorescein peptide substrate)
- Type: biochemical
- settings: final compound concentration 1.14 µM (±0.15 µM); 60 min incubation at 32 °C
Would you mind telling me the reported inhibition at 1.14 µM of each entry?
Give bare numbers, in %.

Below are worked cases with known answers.
O=C(c1cc(-c2ccc(O)cc2)nc2[nH]nc(/C=C/c3ccc(F)c(F)c3)c12)N1CCNCC1 [Example 59]
97
Cc1cccc(/C=C/c2n[nH]c3nc(-c4ccc(O)cc4)cc(C(=O)N4CCNCC4)c23)c1 [Example 38]
98
C[C@@H]1CN(C(=O)c2cc(-c3ccc(O)cc3)nc3[nH]nc(/C=C/c4ccccc4)c23)[C@@H](C)CN1 [Example 8]
97
CN(C)C(=O)c1ccc(/C=C/c2n[nH]c3nc(-c4ccc(O)cc4)cc(C(=O)N4CCNCC4)c23)cc1 [Example 66]
99
O=C(c1cc(-c2ccc(O)cc2)nc2[nH]nc(CCC3CCCCC3)c12)N1CCNCC1 [Example 36]
81

Attention now shifts to the item below.
## Task Enter recorded inhibition at 1.14 µM with human full-length recombinant PKC βII (Homo sapiens) for Cc1cc(/C=C/c2n[nH]c3nc(-c4ccc(O)cc4)cc(C(=O)N4CCNCC4)c23)ccc1O [Example 47] here.
## Result 98

###

- target: human full-length recombinant PKC βII (Homo sapiens)
- Construct: Active human full-length recombinant PKC βII; purchased Invitrogen GmbH, Darmstadt, Germany
- test: Determination of PKC βII inhibition (Caliper mobility-shift kinase assay, phosphorylation of fluorescein peptide substrate)
- Format: biochemical
- settings: final compound concentration 1.14 µM (±0.15 µM); 60 min incubation at 32 °C
Would you mind telling me the reported inhibition at 1.14 µM of each entry?
One number for each entry, in %.

Below are worked cases with known answers.
O=C(CN1CCOCC1)N1CCN(C(=O)c2cc(-c3ccc(O)cc3)nc3[nH]nc(/C=C/c4ccccc4)c23)CC1
45
CN(C)C(=O)c1cccc(/C=C/c2n[nH]c3nc(-c4ccc(O)cc4)cc(C(=O)N4CCNCC4)c23)c1
99

Hey, can you go through the list below and give me inhibition at 1.14 µM for every item?
1. N#Cc1cccc(/C=C/c2n[nH]c3nc(-c4ccc(O)cc4)cc(C(=O)N4CCNCC4)c23)c1
2. CC1(NC(=O)c2cc(-c3ccc(O)cc3)nc3[nH]nc(/C=C/c4ccccc4)c23)CCNCC1
3. O=C(c1cc(-c2ccc(O)cc2)nc2[nH]nc(CCc3ccccc3)c12)N1CCNCC1
4. O=C(c1cc(-c2ccc(O)cc2)nc2[nH]nc(/C=C/c3ccc(Cl)cc3Cl)c12)N1CCNCC1

## Result
1. 99
2. 93
3. 94
4. 39

###

Would you mind telling me the reported inhibition at 1.14 µM of each entry?
- target: human full-length recombinant PKC βII (Homo sapiens, UniProt P05771)
- Construct: Active human full-length recombinant PKC βII; purchased Invitrogen GmbH, Darmstadt, Germany
- Sequence (P05771 1-673 isoform P05771-2): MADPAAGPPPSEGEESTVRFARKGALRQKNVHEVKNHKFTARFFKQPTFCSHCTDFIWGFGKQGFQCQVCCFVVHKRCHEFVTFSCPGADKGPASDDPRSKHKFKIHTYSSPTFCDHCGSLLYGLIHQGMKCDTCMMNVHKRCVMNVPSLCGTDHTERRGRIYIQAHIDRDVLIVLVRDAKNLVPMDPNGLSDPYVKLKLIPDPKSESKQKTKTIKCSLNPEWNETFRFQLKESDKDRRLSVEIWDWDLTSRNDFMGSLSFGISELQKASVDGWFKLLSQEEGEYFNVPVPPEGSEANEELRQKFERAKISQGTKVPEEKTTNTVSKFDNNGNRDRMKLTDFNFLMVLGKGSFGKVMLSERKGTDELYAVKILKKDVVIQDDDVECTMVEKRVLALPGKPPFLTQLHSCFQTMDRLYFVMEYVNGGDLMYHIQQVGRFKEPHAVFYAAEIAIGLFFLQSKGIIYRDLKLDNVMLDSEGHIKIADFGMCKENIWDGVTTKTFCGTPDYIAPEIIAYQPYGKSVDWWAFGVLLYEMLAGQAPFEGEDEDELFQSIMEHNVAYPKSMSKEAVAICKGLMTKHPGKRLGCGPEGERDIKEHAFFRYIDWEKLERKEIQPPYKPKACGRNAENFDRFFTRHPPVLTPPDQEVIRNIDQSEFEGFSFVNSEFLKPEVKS
- test: Determination of PKC βII inhibition (Caliper mobility-shift kinase assay, phosphorylation of fluorescein peptide substrate)
- Format: biochemical
- settings: final compound concentration 1.14 µM (±0.15 µM); 60 min incubation at 32 °C
Quick note: number first, unit second.

Below are worked cases with known answers.
CCc1ccc(/C=C/c2n[nH]c3nc(-c4ccc(O)cc4)cc(C(=O)N4CCNCC4)c23)cc1 [Example 53]
95%
CN1Cc2cc(/C=C/c3n[nH]c4nc(-c5ccc(O)cc5)cc(C(=O)N5CCNCC5)c34)ccc2C1=O [Example 32]
99%
O=C(c1cc(-c2ccc(O)cc2)nc2[nH]nc(/C=C/c3cccc(N4CCCCC4)c3)c12)N1CCNCC1 [Example 26]
96%
O=C(c1cc(-c2ccc(O)cc2)nc2[nH]nc(/C=C/c3ccccc3)c12)N1CCNC2(CCCC2)C1 [Example 79]
97%
O=C(c1cc(-c2ccc(O)cc2)nc2[nH]nc(/C=C/c3ccc(F)cc3Cl)c12)N1CCNCC1 [Example 52]
91%
CC[C@H]1CNCCN1C(=O)c1cc(-c2ccc(O)cc2)nc2[nH]nc(/C=C/c3ccccc3)c12 [Example 10]
87%

## Task Tell me inhibition at 1.14 µM reported for O=C(c1cc(-c2ccc(O)cc2)nc2[nH]nc(/C=C/c3ccc4c(c3)OCO4)c12)N1CCNCC1 [Example 65]
## Result 97%

Values were extracted from patent EP2567959B1.
